TARGET_OR_TEST_SYSTEM: PTK2 (human)
METHOD: radiometric filter-binding kinase assay, Kinase HotSpot
CONDITION_SET: compound 0.5 µM; ATP 10 µM
MEASURE: residual activity (%)
Write the answer as a number in %, unit excluded.

INSERT INTO measurements (molecule, unit_abbrev, numeric_readout) VALUES
  ('Cc1ccc(NC(=O)c2ccc(CN3CCN(C)CC3)cc2)cc1Nc1nc(-c2cccnc2)cs1', '%', 98.6),
  ('CSc1nc(-c2ccc(F)cc2)c(-c2ccnc(NC(C)c3ccccc3)c2)[nH]1 (configuration not stated)', '%', 99.1),
  ('O=C1Nc2ccccc2/C1=C\c1c(Cl)[nH]c2ccccc12', '%', 101),
  ('CC(C)(C)c1nc2c3ccc(F)cc3c3c(=O)[nH]ccc3c2[nH]1', '%', 35.3),
  ('NC(=O)c1ccc(N(C(N)=O)c2c(F)cccc2F)nc1-c1ccc(F)cc1F', '%', 98.9),
  ('Nc1nc(Nc2ccc(S(N)(=O)=O)cc2)nn1C(=O)c1c(F)cccc1F', '%', 95.5),
  ('O=c1cc(N2CCNCC2)oc2c(-c3ccccc3)cccc12', '%', 99),
  ('Oc1ccc(-c2nc(-c3ccc(F)cc3)c(-c3ccncc3)[nH]2)cc1', '%', 96.9);

Entry under review: COc1cc2ncnc(Nc3ccc(F)c(Cl)c3)c2cc1OCCCN1CCOCC1 . Reported residual activity?
103

Entry under review: O=C(NC(NC(=S)Nc1ccc(F)c([N+](=O)[O-])c1)C(Cl)(Cl)Cl)C(c1ccccc1)c1ccccc1 (configuration not stated) . Reported residual activity?
113

Entry under review: Clc1ccc(Nc2nnc(Cc3ccncc3)c3ccccc23)cc1 . Reported residual activity?
101

Entry under review: COc1cc2nccc(Oc3ccc(NC(=S)NC(=O)c4ccccc4C)cc3)c2cc1OC . Reported residual activity?
90.7

---

TARGET_OR_TEST_SYSTEM: PAK7 (human) (UniProt Q9P286)
Sequence (Q9P286 whole entry, looked up): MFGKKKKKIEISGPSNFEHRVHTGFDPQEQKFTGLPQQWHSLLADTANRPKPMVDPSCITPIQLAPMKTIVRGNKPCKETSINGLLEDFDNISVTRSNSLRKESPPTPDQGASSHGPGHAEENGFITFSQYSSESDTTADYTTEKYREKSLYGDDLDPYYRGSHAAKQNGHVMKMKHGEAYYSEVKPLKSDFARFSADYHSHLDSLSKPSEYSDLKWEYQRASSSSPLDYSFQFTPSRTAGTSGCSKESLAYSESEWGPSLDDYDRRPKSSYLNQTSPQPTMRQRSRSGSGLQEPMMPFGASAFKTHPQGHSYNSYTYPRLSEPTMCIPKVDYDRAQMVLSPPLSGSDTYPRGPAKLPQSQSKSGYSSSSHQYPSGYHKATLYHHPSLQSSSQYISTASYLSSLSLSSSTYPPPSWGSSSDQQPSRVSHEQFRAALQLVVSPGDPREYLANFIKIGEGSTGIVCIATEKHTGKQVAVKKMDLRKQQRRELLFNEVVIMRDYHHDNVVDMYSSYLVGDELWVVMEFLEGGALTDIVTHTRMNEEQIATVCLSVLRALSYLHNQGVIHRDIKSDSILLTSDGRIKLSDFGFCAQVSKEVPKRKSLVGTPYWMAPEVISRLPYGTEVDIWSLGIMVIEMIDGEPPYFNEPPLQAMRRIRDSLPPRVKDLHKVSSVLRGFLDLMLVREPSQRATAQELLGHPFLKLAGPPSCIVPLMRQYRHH
METHOD: radiometric filter-binding kinase assay, Kinase HotSpot
CONDITION_SET: compound 0.5 µM; ATP 10 µM
# Lookup of reported residual activity keyed by entry

Here are 2 compounds together with their reported answers.
INSERT INTO results (compound_structure, target_or_test_system, result) VALUES
  ('Clc1ccc(Nc2nnc(Cc3ccncc3)c3ccccc23)cc1', 'PAK7 (human) (UniProt Q9P286)', '97.1%'),
  ('Nc1n[nH]c2nnc(-c3c(-c4ccccc4)nn4ccccc34)cc12', 'PAK7 (human) (UniProt Q9P286)', '98.2%');

Entry under review: NC(=O)c1ccc(N(C(N)=O)c2c(F)cccc2F)nc1-c1ccc(F)cc1F . Reported residual activity?
96.4%

Entry under review: O=C(Nc1ccc(Cl)cc1)c1ccccc1NCc1ccncc1 . Reported residual activity?
79.4%

---

TARGET_OR_TEST_SYSTEM: UniProt P51813
Sequence (P51813 whole entry, looked up): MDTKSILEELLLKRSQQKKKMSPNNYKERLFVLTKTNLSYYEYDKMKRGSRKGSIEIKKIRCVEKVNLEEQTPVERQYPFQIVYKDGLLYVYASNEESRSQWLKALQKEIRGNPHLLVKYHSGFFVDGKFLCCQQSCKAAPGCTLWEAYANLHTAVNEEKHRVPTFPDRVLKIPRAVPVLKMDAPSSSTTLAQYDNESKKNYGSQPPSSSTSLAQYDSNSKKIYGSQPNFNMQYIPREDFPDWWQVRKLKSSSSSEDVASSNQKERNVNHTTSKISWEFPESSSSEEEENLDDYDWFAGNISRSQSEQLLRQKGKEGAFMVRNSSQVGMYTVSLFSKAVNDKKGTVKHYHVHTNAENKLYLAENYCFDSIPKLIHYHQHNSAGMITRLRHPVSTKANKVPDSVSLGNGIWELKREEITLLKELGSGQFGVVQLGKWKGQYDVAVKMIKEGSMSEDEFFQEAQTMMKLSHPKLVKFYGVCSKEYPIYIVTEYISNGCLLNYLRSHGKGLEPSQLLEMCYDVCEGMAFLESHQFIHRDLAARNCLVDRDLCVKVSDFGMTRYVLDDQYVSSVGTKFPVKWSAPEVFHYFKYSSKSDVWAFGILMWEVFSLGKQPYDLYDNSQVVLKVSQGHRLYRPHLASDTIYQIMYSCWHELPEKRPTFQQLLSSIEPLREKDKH
METHOD: radiometric filter-binding kinase assay, Kinase HotSpot
CONDITION_SET: compound 0.5 µM; ATP 10 µM
MEASURE: residual activity (%)
Write the answer as a number in %, unit excluded.

INSERT INTO assay_data (molecule, measure, numeric_readout) VALUES
  ('COc1cc2nccc(Oc3ccc(NC(=S)NC(=O)c4ccccc4C)cc3)c2cc1OC', 'residual activity', 30.6),
  ('O=C(NC(NC(=S)Nc1ccc(F)c([N+](=O)[O-])c1)C(Cl)(Cl)Cl)C(c1ccccc1)c1ccccc1 (stereo not given)', 'residual activity', 102),
  ('Nc1n[nH]c2nnc(-c3c(-c4ccccc4)nn4ccccc34)cc12', 'residual activity', 84.4),
  ('COc1ccc(-c2cnc3c(-c4ccsc4)cnn3c2)cc1', 'residual activity', 90.6),
  ('CSc1nc(-c2ccc(F)cc2)c(-c2ccnc(NC(C)c3ccccc3)c2)[nH]1 (stereo not given)', 'residual activity', 102),
  ('Nc1nc(Nc2ccc(S(N)(=O)=O)cc2)nn1C(=S)Nc1c(F)cccc1F', 'residual activity', 77.5),
  ('CC(C)n1cnc2c(Nc3cccc(Cl)c3)nc(NCCO)nc21', 'residual activity', 92.5),
  ('O=C1Nc2ccccc2/C1=C\c1c(Cl)[nH]c2ccccc12', 'residual activity', 99.8),
  ('O=C1Cc2c([nH]c3ccc([N+](=O)[O-])cc23)-c2ccccc2N1', 'residual activity', 110);

--- query ---
Entry under review: Cc1ccc(NC(=O)c2ccc(CN3CCN(C)CC3)cc2)cc1Nc1nc(-c2cccnc2)cs1 . Reported residual activity?
104

---

# Lookup of reported residual activity keyed by entry
TARGET_OR_TEST_SYSTEM: CSF1R (human)
METHOD: radiometric filter-binding kinase assay, Kinase HotSpot
CONDITION_SET: compound 0.5 µM; ATP 10 µM
Write the answer as a number in %, unit excluded.

Here are 5 compounds together with their reported answers.
INSERT INTO assay_data (compound, target_or_test_system, unit_abbrev, numeric_readout) VALUES
  ('Cc1cc2ncc(-c3ccccc3)nc2cc1C', 'CSF1R (human)', '%', 82.1),
  ('Oc1ccc(-c2nc(-c3ccc(F)cc3)c(-c3ccncc3)[nH]2)cc1', 'CSF1R (human)', '%', 96.9),
  ('O=C(NC(NC(=S)Nc1ccc(F)c([N+](=O)[O-])c1)C(Cl)(Cl)Cl)C(c1ccccc1)c1ccccc1 (stereo not drawn)', 'CSF1R (human)', '%', 96.2),
  ('Nc1nc(Nc2ccc(S(N)(=O)=O)cc2)nn1C(=O)c1c(F)cccc1F', 'CSF1R (human)', '%', 49.2),
  ('CC(C)[C@H](CO)Nc1nc(Nc2cccc(Cl)c2)c2ncn(C(C)C)c2n1', 'CSF1R (human)', '%', 96.9);

Entry under review: COc1cc2ncnc(Nc3ccc(F)c(Cl)c3)c2cc1OCCCN1CCOCC1 . Reported residual activity?
110

Entry under review: CCCNC(=O)Nc1ccc(Oc2ncnc3cc(OC)c(OC)cc23)cc1Cl . Reported residual activity?
51.1

Entry under review: Nc1n[nH]c2nnc(-c3c(-c4ccccc4)nn4ccccc34)cc12 . Reported residual activity?
96.8

---

# Lookup of reported residual activity keyed by entry
TARGET_OR_TEST_SYSTEM: CDK9 CCNT1 (human) (UniProt P50750+O60563)
Sequence (O60563 whole entry, looked up): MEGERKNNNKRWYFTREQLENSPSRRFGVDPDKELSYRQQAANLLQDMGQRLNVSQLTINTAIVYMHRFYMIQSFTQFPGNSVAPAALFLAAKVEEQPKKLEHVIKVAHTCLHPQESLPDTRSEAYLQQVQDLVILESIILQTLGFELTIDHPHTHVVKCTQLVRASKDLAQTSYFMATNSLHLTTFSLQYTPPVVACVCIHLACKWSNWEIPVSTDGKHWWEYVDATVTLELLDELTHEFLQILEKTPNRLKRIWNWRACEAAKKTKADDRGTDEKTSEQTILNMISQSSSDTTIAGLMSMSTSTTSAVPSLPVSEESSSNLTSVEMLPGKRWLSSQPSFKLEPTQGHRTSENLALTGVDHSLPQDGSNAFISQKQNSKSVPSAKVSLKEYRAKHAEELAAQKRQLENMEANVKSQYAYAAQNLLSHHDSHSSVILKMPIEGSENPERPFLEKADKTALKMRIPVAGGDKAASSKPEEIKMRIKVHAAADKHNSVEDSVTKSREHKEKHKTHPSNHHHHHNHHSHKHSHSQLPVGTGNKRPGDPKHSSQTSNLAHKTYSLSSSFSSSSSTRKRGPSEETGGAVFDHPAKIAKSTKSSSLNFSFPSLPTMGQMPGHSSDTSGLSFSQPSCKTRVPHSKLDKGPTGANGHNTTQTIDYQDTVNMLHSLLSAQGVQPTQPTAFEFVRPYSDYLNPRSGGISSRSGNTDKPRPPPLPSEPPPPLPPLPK
Sequence (P50750 whole entry, looked up): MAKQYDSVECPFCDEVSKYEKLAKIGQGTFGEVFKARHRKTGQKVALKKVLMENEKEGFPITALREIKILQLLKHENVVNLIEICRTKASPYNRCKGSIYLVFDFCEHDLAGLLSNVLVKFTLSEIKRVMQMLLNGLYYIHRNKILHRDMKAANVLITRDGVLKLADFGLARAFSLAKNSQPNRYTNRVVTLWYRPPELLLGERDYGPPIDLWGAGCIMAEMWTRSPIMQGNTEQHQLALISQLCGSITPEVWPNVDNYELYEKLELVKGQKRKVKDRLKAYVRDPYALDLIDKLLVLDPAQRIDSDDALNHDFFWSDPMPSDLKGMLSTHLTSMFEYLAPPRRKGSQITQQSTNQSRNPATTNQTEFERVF
METHOD: radiometric filter-binding kinase assay, Kinase HotSpot
CONDITION_SET: compound 0.5 µM; ATP 10 µM
Write the answer as a number in %, unit excluded.

Here are 3 compounds together with their reported answers.
INSERT INTO assay_data (compound, measure, numeric_readout) VALUES
  ('CC(C)[C@H](CO)Nc1nc(Nc2cccc(Cl)c2)c2ncn(C(C)C)c2n1', 'residual activity', 65),
  ('O=C1Nc2cc(Br)ccc2/C1=C1/Nc2ccccc2/C1=N\O', 'residual activity', 68.2),
  ('Clc1ccc(Nc2nnc(Cc3ccncc3)c3ccccc23)cc1', 'residual activity', 94.9);

Entry under review: CCCNC(=O)Nc1ccc(Oc2ncnc3cc(OC)c(OC)cc23)cc1Cl . Reported residual activity?
98

Entry under review: Cc1cc(Nc2cc(N3CCN(C)CC3)nc(Sc3ccc(NC(=O)C4CC4)cc3)n2)[nH]n1 . Reported residual activity?
93.1

---

TARGET_OR_TEST_SYSTEM: MST1R (human) (UniProt Q04912)
Sequence (Q04912 whole entry, looked up): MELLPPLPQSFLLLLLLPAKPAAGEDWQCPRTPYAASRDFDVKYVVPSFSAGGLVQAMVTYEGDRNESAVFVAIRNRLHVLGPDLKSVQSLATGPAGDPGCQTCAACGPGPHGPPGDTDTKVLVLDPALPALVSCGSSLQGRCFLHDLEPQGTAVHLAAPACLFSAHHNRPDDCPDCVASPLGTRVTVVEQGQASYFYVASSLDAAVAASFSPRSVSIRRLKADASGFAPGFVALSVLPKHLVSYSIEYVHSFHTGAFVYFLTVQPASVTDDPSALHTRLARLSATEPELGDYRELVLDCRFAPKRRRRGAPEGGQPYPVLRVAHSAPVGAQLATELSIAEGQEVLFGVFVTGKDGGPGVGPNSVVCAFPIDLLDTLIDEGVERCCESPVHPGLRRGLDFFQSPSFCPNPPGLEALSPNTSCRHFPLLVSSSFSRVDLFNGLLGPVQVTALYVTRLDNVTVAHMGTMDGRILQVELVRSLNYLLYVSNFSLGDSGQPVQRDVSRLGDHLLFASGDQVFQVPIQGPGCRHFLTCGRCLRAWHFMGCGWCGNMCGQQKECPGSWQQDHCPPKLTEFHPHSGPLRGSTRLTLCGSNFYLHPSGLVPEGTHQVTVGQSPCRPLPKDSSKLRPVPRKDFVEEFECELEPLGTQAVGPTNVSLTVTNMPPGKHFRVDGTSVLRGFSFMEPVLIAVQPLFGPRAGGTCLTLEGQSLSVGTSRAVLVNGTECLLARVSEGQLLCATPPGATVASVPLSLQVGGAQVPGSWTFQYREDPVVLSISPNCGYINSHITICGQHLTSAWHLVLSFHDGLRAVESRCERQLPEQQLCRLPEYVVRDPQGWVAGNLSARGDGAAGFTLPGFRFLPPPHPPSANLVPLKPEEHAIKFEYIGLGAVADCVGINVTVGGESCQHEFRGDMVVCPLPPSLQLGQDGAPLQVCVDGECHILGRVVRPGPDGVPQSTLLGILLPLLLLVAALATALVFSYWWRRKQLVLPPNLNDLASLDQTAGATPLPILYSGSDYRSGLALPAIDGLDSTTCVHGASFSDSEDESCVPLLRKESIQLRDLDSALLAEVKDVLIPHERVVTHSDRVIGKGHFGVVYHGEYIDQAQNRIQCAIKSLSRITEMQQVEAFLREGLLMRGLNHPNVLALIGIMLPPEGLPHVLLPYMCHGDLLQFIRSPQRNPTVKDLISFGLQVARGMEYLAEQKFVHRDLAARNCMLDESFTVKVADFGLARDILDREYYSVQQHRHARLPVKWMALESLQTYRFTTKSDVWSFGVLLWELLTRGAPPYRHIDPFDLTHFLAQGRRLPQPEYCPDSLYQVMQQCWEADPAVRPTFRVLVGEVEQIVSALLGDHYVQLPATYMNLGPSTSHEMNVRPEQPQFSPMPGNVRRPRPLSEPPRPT
METHOD: radiometric filter-binding kinase assay, Kinase HotSpot
CONDITION_SET: compound 0.5 µM; ATP 10 µM
# Lookup of reported residual activity keyed by entry
Write the answer as a number in %, unit excluded.

INSERT INTO measurements (compound, numeric_readout) VALUES
  ('Nc1nc(Nc2ccc(S(N)(=O)=O)cc2)nn1C(=O)c1c(F)cccc1F', 115),
  ('O=C(Nc1ccc(Cl)cc1)c1ccccc1NCc1ccncc1', 90.5),
  ('CC(C)n1cnc2c(Nc3cccc(Cl)c3)nc(NCCO)nc21', 101),
  ('O=c1cc(N2CCNCC2)oc2c(-c3ccccc3)cccc12', 96);

Entry under review: C#Cc1cccc(Nc2ncnc3cc(OCCOC)c(OCCOC)cc23)c1 . Reported residual activity?
93.6

Entry under review: O=C1Nc2ccccc2/C1=C\c1c(Cl)[nH]c2ccccc12 . Reported residual activity?
97.5

Entry under review: Nc1n[nH]c2nnc(-c3c(-c4ccccc4)nn4ccccc34)cc12 . Reported residual activity?
102

Entry under review: COc1cc2nccc(Oc3ccc(NC(=S)NC(=O)c4ccccc4C)cc3)c2cc1OC . Reported residual activity?
88.8

---

TARGET_OR_TEST_SYSTEM: ADRBK2 (human) (UniProt P35626)
Sequence (P35626 whole entry, looked up): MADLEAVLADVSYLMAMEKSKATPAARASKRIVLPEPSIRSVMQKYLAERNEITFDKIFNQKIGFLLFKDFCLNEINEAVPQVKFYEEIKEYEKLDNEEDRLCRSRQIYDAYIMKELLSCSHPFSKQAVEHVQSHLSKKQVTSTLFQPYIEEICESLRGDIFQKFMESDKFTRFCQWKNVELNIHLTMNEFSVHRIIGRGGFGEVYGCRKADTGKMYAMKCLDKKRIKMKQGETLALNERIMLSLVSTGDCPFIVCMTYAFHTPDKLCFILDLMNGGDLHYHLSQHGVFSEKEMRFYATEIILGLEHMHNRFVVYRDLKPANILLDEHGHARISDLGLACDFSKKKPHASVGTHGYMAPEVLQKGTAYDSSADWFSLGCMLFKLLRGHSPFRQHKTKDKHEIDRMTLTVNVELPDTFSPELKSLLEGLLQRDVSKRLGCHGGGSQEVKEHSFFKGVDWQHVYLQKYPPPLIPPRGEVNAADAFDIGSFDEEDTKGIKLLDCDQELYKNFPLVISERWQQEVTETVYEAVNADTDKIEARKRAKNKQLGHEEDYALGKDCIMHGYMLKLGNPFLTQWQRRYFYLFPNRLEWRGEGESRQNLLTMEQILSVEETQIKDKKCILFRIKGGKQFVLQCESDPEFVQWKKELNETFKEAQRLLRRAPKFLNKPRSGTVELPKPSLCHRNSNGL
METHOD: radiometric filter-binding kinase assay, Kinase HotSpot
CONDITION_SET: compound 0.5 µM; ATP 10 µM
# Lookup of reported residual activity keyed by entry
Write the answer as a number in %, unit excluded.

INSERT INTO results (compound_structure, numeric_readout) VALUES
  ('C#Cc1cccc(Nc2ncnc3cc(OCCOC)c(OCCOC)cc23)c1', 94.8),
  ('CC(C)n1cnc2c(Nc3cccc(Cl)c3)nc(NCCO)nc21', 90.5),
  ('CC(C)[C@H](CO)Nc1nc(Nc2cccc(Cl)c2)c2ncn(C(C)C)c2n1', 99.1);

--- query ---
Entry under review: Cc1ccc(NC(=O)c2ccc(CN3CCN(C)CC3)cc2)cc1Nc1nc(-c2cccnc2)cs1 . Reported residual activity?
100
